Each entry below carries its recorded solubility kinetic.
# particulars: buffer; pH 7.4; 200.0 µM
Report the value in µg/mL with no unit label.

COc1ccc(NC2c3ccccc3C(=O)N2c2ccccn2)cc1 (stereo not given): 34.1
CC(C)CN1CCNC(=O)C1CC(=O)N(C)CC1CCOCC1 (stereo not given): 45.7
CCc1cc2c(Nc3ccc(O)cc3)nc(C)nc2s1.Cl: 13.4
CC(C(=O)N1CCCCCC1)N(c1ccc(Cl)cc1)S(C)(=O)=O (stereo not given): 46.8
Cc1cc(C)nc(SCc2cn3c(C)cccc3n2)n1: 37.9

Input line: Consider the molecule c1ccc(-c2cccs2)nc1 and give its measured solubility kinetic.
Output line: 1.9

Input line: Consider the molecule O=C(NCCCCc1ccccc1)c1ccc(F)cc1 and give its measured solubility kinetic.
Output line: 1.4

Input line: Consider the molecule O=C(CC(=O)Nc1cccc(F)c1)Nc1cccc(F)c1 and give its measured solubility kinetic.
Output line: 9.4

Input line: Consider the molecule COc1ccccc1OCCCn1cc(C(C)=O)c2ccccc21 and give its measured solubility kinetic.
Output line: 25.8

Input line: Consider the molecule O=C(Nc1nccs1)c1cc([N+](=O)[O-])ccc1Cl and give its measured solubility kinetic.
Output line: 3.7

Input line: Consider the molecule O=C(NCCc1ccc(F)cc1)Nc1ccccc1 and give its measured solubility kinetic.
Output line: 6.1

Input line: Consider the molecule O=C(COC(=O)c1cccc(Cl)c1)Nc1cccc(S(=O)(=O)NC2=NCCC2)c1 and give its measured solubility kinetic.
Output line: 63.3

Input line: Consider the molecule Cc1cccc(NC(=O)Nc2ccc(S(N)(=O)=O)cc2)c1 and give its measured solubility kinetic.
Output line: 22.1

Input line: Consider the molecule CC(NC1=NCCS1)c1ccccc1 (stereo not given) and give its measured solubility kinetic.
Output line: 30.4

Input line: Consider the molecule CCOc1cc(C(=O)NC2CCCCCCC2)cc(OCC)c1OCC and give its measured solubility kinetic.
Output line: 2.3

Input line: Consider the molecule O=C1C2C3C=CC(CC3)C2C(=O)N1c1cccc(Br)c1 (stereo not given) and give its measured solubility kinetic.
Output line: 2

Attribution: PubChem BioAssay AID1996
